- system: G-protein coupled receptor 55 (Homo sapiens)
- assay-info: GPR55 antagonists blocking LPI-driven arrestin recruitment, primary screen, imaging, U2OS, beta-arrestin-GFP, LPI agonist (AID 2013);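 also: U2OS cells stably carrying GPR55 and arrestin-GFP stimulated by 5 µM LPI near EC80; imaged beta-arrestin-GFP aggregate spots per cell after agonist stimulation; plate controls were LPI-stimulated DMSO wells for no effect and DMSO wells without LPI for full effect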
- assay-setup: U2OS GPR55 beta-arrestin-GFP translocation imaging, LPI antagonism; at 10 µM; hits give high values
Among all 290,000 compounds or so, about 370 (0.13%) were called active. This excerpt belongs to a sample that is enriched for actives. Potency and affinity values are given separately.
recorded-endpoint: inhibition (%)
The answer is to be given in %; state only the numeric part.

compound	inhibition / %
NC(=O)C1(N2CCCCC2)CCN(C2CC(=O)NC2=O)CC1 (stereo unspecified)	9.8
CCN(Cc1cn2cccnc2n1)C1CCCCC1	87.7
COc1ccc(C(CCNCc2ccc(F)cc2)c2ccc(F)cc2)cc1 (stereo unspecified)	45.1
COC(=O)c1cccc(NC(=O)CSc2nc3cccnc3n2C)c1	16.9
C#CCNC(=O)C1=C[C@@H](c2csc3ccccc23)[C@H](CCCO)[C@@H](OCC)O1	14.1

Here is another compound to look at.
Looking up `COC(=O)c1cc(C#N)c(Oc2ccc(F)cc2)nc1C` , I found its inhibition recorded as 20.6
